system: P. berghei ookinete development; conditions: primary screen at 1 μM, replicate B
value-type: % inhibition, Replicate B (%)
Numeric only. Scale: %

Example results:
{"molecule": "COc1ccc(Cc2c(N)nc3nc(N)nc(N)c3c2C)cc1.Cl [TCMDC-138061]", "% inhibition, Replicate B (%)": 51.34}
{"molecule": "Cc1cc2nc(/N=C(\\N)NC(=O)NC3CCCCC3)nc(C)c2cc1C [TCMDC-124528]", "% inhibition, Replicate B (%)": 63.38}
{"molecule": "Cc1[nH]c(C)c(-c2ccc(-c3ccccc3Cl)nc2)c(=O)c1Cl [TCMDC-136303]", "% inhibition, Replicate B (%)": 98.57}
{"molecule": "O=C(Nc1ccccc1)Nc1ccc(-n2ccc(C(F)(F)F)n2)cc1 [TCMDC-123480]", "% inhibition, Replicate B (%)": 52.26}
{"molecule": "COc1ccc2ncc(C#N)c(CCN3C4CCC3CC(NCc3ccc5c(n3)NC(=O)CS5)C4)c2c1.Cl (centres unmarked) [TCMDC-135180]", "% inhibition, Replicate B (%)": 72.52}

Sample Cc1cc(=O)c(-c2ccc(Oc3cccc(Cl)c3)cc2)c(C)[nH]1 [TCMDC-137265] — what was its % inhibition, Replicate B?
102.47

Sample O=c1nc(C=Cc2ccc(Br)cc2)oc2ccccc12 [TCMDC-123878] — what was its % inhibition, Replicate B?
32.93

Sample CN(C)c1ccc(C=Cc2nc(=O)c3ccccc3o2)cc1 [TCMDC-123870] — what was its % inhibition, Replicate B?
65.62

Sample CS(=O)(=O)Cc1cccc(Nc2ncc(Cl)c(Nc3cccnc3C(N)=O)n2)c1.Cl [TCMDC-134166] — what was its % inhibition, Replicate B?
90.53

Sample COc1ccc2nccc([C@@H](O)CN3CCC(NCc4cc5c(F)ccc(F)c5[nH]4)CC3)c2c1.O=C(O)C(=O)O [TCMDC-140739] — what was its % inhibition, Replicate B?
50.21

Sample COc1cc(OC)nc(C(Sc2ccc(NC(=O)c3cccs3)cc2)c2ccccc2)n1 (centres unmarked) [TCMDC-124257] — what was its % inhibition, Replicate B?
55.99

Sample CCCCC1=CC2C(=O)C(C(=O)OC)=CN=C2C=C1OCc1ccccc1 (centres unmarked) [TCMDC-137492] — what was its % inhibition, Replicate B?
106.84

Sample Br.CC1(C)N=C(N)N=C(N)N1OCCc1ccc2ccccc2c1 [TCMDC-131755] — what was its % inhibition, Replicate B?
52.02

Sample CNCCN(C)C(=O)Oc1c(Br)c(C)nc(C)c1-c1ccc(Oc2ccc(OC(F)(F)F)cc2)cc1.Cl [TCMDC-137377] — what was its % inhibition, Replicate B?
124.21

Sample COc1ccc2ncc(F)c(NC(=O)C3CCC(NCc4cc5c(F)cccc5[nH]4)CC3)c2n1.Cl (centres unmarked) [TCMDC-136354] — what was its % inhibition, Replicate B?
82.69

Sample Nc1nc(N)c2c(ccc3c2ccn3CCCC(F)(F)F)n1 [TCMDC-138622] — what was its % inhibition, Replicate B?
53.93

Sample Cc1[nH]c2ccccc2c1C(=O)C(C)Sc1n[nH]c(-c2ccccc2Br)n1 (centres unmarked) [TCMDC-125114] — what was its % inhibition, Replicate B?
73.49

----------
test system: HepG2 cells; test: HepG2 cytotoxicity assay; settings: HepG2 values of the three screens unified
Reported Unified cytotox by item:
Numeric only. Scale: µM

{"molecule-smiles": "Cc1cccc(Nc2nc(N[C@@H]3CCCNC3)nc3cc[nH]c(=O)c23)c1.O=C(O)C(F)(F)F", "Unified cytotox / µM": 3.91}

Sample Cc1[nH]c(C)c(-c2ccc(-c3ccc(Cl)cc3)nc2)c(=O)c1Cl — what was its Unified cytotox?
100.00

Sample COc1cc2ccccc2c(OC)c1CCNCCCCNCCc1c(OC)cc2ccccc2c1OC.CS(=O)(=O)O — what was its Unified cytotox?
3.68

Sample Cc1[nH]c(C)c(-c2ccc(-c3ccc(OC(F)(F)F)cc3)nc2)c(=O)c1Br — what was its Unified cytotox?
100.00

Sample COc1ccc(CCc2ccc(-c3c(C)[nH]c(C)c(Cl)c3=O)cc2)cc1 — what was its Unified cytotox?
100.00

Sample COc1ccc2nccc([C@@H](O)CN3CCC(NCc4cc5ccc(C#N)cc5[nH]4)CC3)c2c1.O=C(O)C(=O)O — what was its Unified cytotox?
1.55

Sample Cc1[nH]c(C)c(-c2ccc(CCc3ccc(N)cc3)cc2)c(=O)c1Cl — what was its Unified cytotox?
100.00

Sample CCn1c(C(C)C)cc2c3c(N)nc(N)nc3ccc21 — what was its Unified cytotox?
0.00302

----------
test system: P. berghei ookinete development; settings: read-out: Pb Ookinete development assay IC50; dose response confirmation
value-type: pIC50
Remember the convention: pIC50 equals -log10 of concentration in molar.

Please tell me: pIC50 of Nc1nc(N)c2c(ccc3c2ccn3Cc2ccccc2)n1 [TCMDC-141977] , system P. berghei ookinete development?
6.54

Please tell me: pIC50 of Cc1[nH]c(C)c(-c2ccc(OCc3ccc(OC(F)(F)F)cc3)nc2)c(=O)c1Br [TCMDC-135254] , system P. berghei ookinete development?
5.77

Please tell me: pIC50 of CCOC(=O)c1c(CN2CCCC2)n(-c2ccccc2)c2cc(Br)c(O)cc12 [TCMDC-124122] , system P. berghei ookinete development?
5.11

----------
system: P. berghei ookinete development; settings: primary screen at 1 μM, replicate B
value-type: % inhibition, Replicate B (%)
Numeric only. Scale: %

Sample Cc1[nH]c(C)c(-c2ccc(OCc3ccc(OC(F)(F)F)cc3)nc2)c(=O)c1Cl [TCMDC-135271] — what was its % inhibition, Replicate B?
76.52

Sample C=C[C@H]1CN(CCCCCCC)CC[C@H]1CC(=O)Nc1cnnc2ccc(OC)cc12.O=C(O)C(=O)O [TCMDC-139791] — what was its % inhibition, Replicate B?
54.49

Sample COc1ccc(Cn2ccc3c4c(N)nc(N)nc4ccc32)cc1 [TCMDC-139862] — what was its % inhibition, Replicate B?
74.79

Sample CC(C)CCN1CCC(Oc2ccc(NC(=O)c3cccs3)cc2Cl)CC1.O=C(O)C(F)(F)F [TCMDC-133974] — what was its % inhibition, Replicate B?
57.89

Sample O=C(Nc1ccccc1O)c1ccc(S(=O)(=O)c2ccc(Cl)cc2)cc1 [TCMDC-123689] — what was its % inhibition, Replicate B?
50.54

Sample CC(C)Cn1ncc2c3c(N)nc(N)nc3ccc21 [TCMDC-137970] — what was its % inhibition, Replicate B?
41.76

Sample CC(C)CN1CCN(c2nc(C#N)c3c(c2C(=S)NC2CCCCC2)CC(C)(C)OC3)CC1 [TCMDC-124173] — what was its % inhibition, Replicate B?
54.94

Sample COc1ccc(-c2ccc([N+](=O)[O-])cc2C(=O)NCC(C)Oc2ccc(C(F)(F)F)cc2)cc1 (centres unmarked) [TCMDC-132304] — what was its % inhibition, Replicate B?
50.52

----------
tested on: P. berghei ookinete development; conditions: read-out: Pb ODA (this manuscript) IC50; P. berghei ookinete development assay; this manuscript
value-type: IC50 (µM)
Numeric only. Scale: µM

{"compound": "Cc1[nH]c(C)c(-c2ccc(-c3ccc(Cl)cc3)cc2)c(=O)c1Cl [TCMDC-137416]", "numeric-value": 2.43}
{"compound": "CCOC(=O)N1CCN(CCCCNc2c3ccc(Cl)cc3nc3ccc(OC)cc23)CC1.Cl [TCMDC-137579]", "numeric-value": 4.49}
{"compound": "CNC(=O)c1ccccc1Nc1nc(Nc2ccc(N3CCOCC3)cc2)ncc1Cl.Cl [TCMDC-134144]", "numeric-value": 0.39}

We now examine a further compound.
Please tell me: IC50 of COc1cc(-c2nc(C(C)(C)CN)[nH]c2-c2ccncc2)ccc1Br.Cl [TCMDC-140674] , system P. berghei ookinete development?
1.32

----------
tested on: HepG2 cells; experiment: HepG2 cytotoxicity assay; settings: HepG2 cytotoxicity listed with the Pb ODA data set (this manuscript)
value-type: Pb ODA (this manuscript) HepG2 cytoxicity

Example results:
{"molecule": "Cc1ccc(S(=O)(=O)N2CCCN(C(=O)c3cc(-c4ccccc4)n[nH]3)CC2)cc1 [TCMDC-125243]", "result": "100.00 µM"}
{"molecule": "COc1cc(F)c2ncc(Cl)c(CCN3CCC(NCc4ccc5c(c4)NC(=O)CO5)CC3)c2c1.Cl [TCMDC-135623]", "result": "12.30 µM"}
{"molecule": "Cc1nc(C)c(-c2ccc(Cl)cc2)c(O)c1I [TCMDC-137424]", "result": "100.00 µM"}
{"molecule": "NC(=O)c1ccccc1Nc1nc(Nc2cc[nH]n2)ncc1Cl [TCMDC-134169]", "result": "13.18 µM"}
{"molecule": "COc1ccc(Nc2ncc(Cl)c(Nc3cccnc3C(N)=O)n2)cc1N1CCN(C)CC1.Cl [TCMDC-134163]", "result": "11.22 µM"}

Sample COc1ccc(Nc2ncc(C#N)c(Nc3ccccc3C(N)=O)n2)cc1N1CCN(C)CC1.Cl [TCMDC-134117] — what was its Pb ODA (this manuscript) HepG2 cytoxicity?
8.32 µM

Sample Br.COc1ccc(CCCON2C(=N)N=C(N)NC2(C)C)cc1 [TCMDC-131693] — what was its Pb ODA (this manuscript) HepG2 cytoxicity?
0.001 µM

Sample Cc1cccc2nc(-c3ccc(-c4ccc(CN5CCCC(O)C5)cc4)cc3)[nH]c12.O=C(O)C(F)(F)F (centres unmarked) [TCMDC-133826] — what was its Pb ODA (this manuscript) HepG2 cytoxicity?
12.88 µM
